I'd appreciate it if you could supply GI50 values for the items below.
- System: OVCAR-3
- EXPERIMENT_NOTES: NCI tumour cell line growth inhibition, 48 h
The source made the active and inactive calls. No stated cut-off is given here; in the data, active = GI50 up to about 1.1 µM and inactive = higher.

Could you share what GI50 was measured for O=C1C=CC=CC2CC=C[C@@H](O)C12 (stereo partly specified) , tested on OVCAR-3?
> 10 µM (inactive)

# get_value(readout= GI50, system= OVCAR-3) for "COc1ccc2c(C(=O)O)cc3ccccc3c2c1OC"
16.6 µM (inactive)

Provide the documented GI50 with OVCAR-3 as the system for "c1ccc(SCCc2ccncc2)cc1"
40.6 µM (inactive)

Query GI50 on OVCAR-3 for CCOC1SC(SC)=NN1C(=O)C(OC(C)=O)C(OC(C)=O)C(OC(C)=O)C(OC(C)=O)C(=O)N1N=C(SC)SC1OCC (stereo unspecified)
> 100 µM (inactive)

What is its GI50 for OVCAR-3? Entry: COC(=O)C1SC[C@H]2C(=O)N(c3ccccc3)C(=O)N12 (stereo partly specified)
> 100 µM (inactive)

Recorded GI50 for "Cc1cccc2c1C/C(=C\c1cccc(C)c1C(=O)O)C2=O" with OVCAR-3, please?
> 100 µM (inactive)

Given the entry "NCc1ccc(O)c(O)c1O" , what GI50 was observed with OVCAR-3?
22.1 µM (inactive)

Provide the documented GI50 with OVCAR-3 as the system for "COc1ccc2c(c1)[n+]([O-])c(-c1ccc([N+](=O)[O-])cc1)c(N)[n+]2[O-]"
> 100 µM (inactive)

For the record "Cn1cnc([N+](=O)[O-])c1Sc1nc2cccnc2s1" , what value of GI50 is listed for OVCAR-3?
14.6 µM (inactive)

I'm curious: which GI50 was measured for "COc1ccc(-c2onc(-c3ccc([N+](=O)[O-])cc3)c2C2=NCCN2)cc1" tested on OVCAR-3?
> 100 µM (inactive)

Query for OVCAR-3: what GI50 does the record show for C=CC1=CC(C)C[C@]1(O)C(=O)OC (stereo partly specified) ?
< 0.01 µM (active)

----------
- Test system: NCI-H23
- EXPERIMENT_NOTES: NCI tumour cell line growth inhibition, 48 h
Activity calls are given as the source filed them. Cut-off read from the data, not from the text of the source: active = GI50 up to about 1.1 µM and inactive = higher.
REPORTED_ENDPOINT: GI50

Given the compound "O=C(Nc1c(O)[nH]c(=S)[nH]c1=O)c1ccccc1" , what is its reported GI50?
> 100 µM (inactive)

Which GI50 is reported for this compound? O=C1C(Cl)N(c2ccccc2)C1c1c[nH]c2ccccc12 (stereo unspecified)
> 100 µM (inactive)

Entry under review: "O=c1/c(=C/c2ccccn2)sc2nc3cc4c(cc3n12)OCCO4" . Reported GI50?
> 100 µM (inactive)

Which value of GI50 has been reported for "COc1ccc(-c2c(=O)[nH]n3c(=S)[nH]c(-c4ccccc4)nc23)cc1OC" in the records?
21.3 µM (inactive)

Given "COc1cc(O)c2c(c1)C(=O)C=C(Cl)C2=O" , state its recorded GI50.
> 100 µM (inactive)

Quick one: GI50 of Nc1nc(O)c2ncn(C3C=CC(CO)C3)c2n1 (stereo unspecified) ?
> 100 µM (inactive)

----------
- Test system: COLO 205
- EXPERIMENT_NOTES: NCI tumour cell line growth inhibition, 48 h
The source made the active and inactive calls. Cut-off read from the data, not from the text of the source: active = GI50 up to about 1.1 µM and inactive = higher.
Assign GI50 to each entry below.

Entry "Cc1cccc2c1C/C(=C\c1cccc(C)c1C(=O)O)C2=O" : reported GI50 = ?
82.6 µM (inactive)

Entry CCC(c1ccc(OC)cc1)C1NC(=S)NC1=O (centres undefined) has what GI50?
> 50 µM (inactive)

Return reported GI50; argument: "Cc1cnc(/C=N\NC(N)=S)c2cccc(N)c12"
1.4 µM (inactive)

I would be grateful if you could share the reported GI50 for CC(C(=O)c1ccccc1)C1(O)C(=O)Nc2ccc(Cl)cc21 (centres undefined) .
> 100 µM (inactive)

----------
- Tested on: Malme-3M
- EXPERIMENT_NOTES: NCI tumour cell line growth inhibition, 48 h
Active and inactive are the calls of the source. No stated cut-off is given here; in the data, active = GI50 up to about 1.1 µM and inactive = higher.
For each entry below, report its GI50 value.

Param item = "O=C(c1ccc(/N=C/c2ccccc2O)cc1)c1ccc(/N=C/c2ccccc2O)cc1" ; retrieve measured GI50.
> 100 µM (inactive)

What GI50 value was documented for this compound, OCC1OC(n2cnc3c2N=CNC[C@H]3O)C(Cl)C1O (stereo not given in full) ?
> 100 µM (inactive)

Need GI50, item CC[C@H]1CN(C)[C@H]2Cc3c([nH]c4ccccc34)C(=O)C[C@H]1C2C(=O)OC (stereo not given in full)
> 100 µM (inactive)

Consider the compound shown here: "Cc1c(C(=O)Nc2ccc(Cl)cc2)nc(N)nc1-c1cccc(Cl)c1" What is its recorded GI50?
> 100 µM (inactive)

# lookup: GI50 of Cc1ccc(SCC(CF)OC(C)n2cnc3c(Cl)nc(N)nc32)cc1 (stereo not given)
93.5 µM (inactive)

I am curious: what GI50 value has been reported for "CCN(CC)c1ccc(/N=C2/C=CC(=O)c3ncccc32)c(C)c1" ?
3.82 µM (inactive)

What value of GI50 has been reported for the following compound? "O=C1NCC2(CCN(Cc3ccccc3)CC2)N1"
> 100 µM (inactive)

Field request: GI50 | item: "CN[C@H](C)[C@@H](OC)c1ccccc1"
> 100 µM (inactive)

Look at this compound and give its reported GI50. FC(F)(F)c1ccc2c(c1)nc(-c1ccc(Cl)cc1)n2CC1CCCN2CCCCC12 (stereo not given)
15.3 µM (inactive)

I would be grateful if you could share the reported GI50 for "c1ccc2cc3n[se]nc3cc2c1" .
> 100 µM (inactive)

----------
- System: T47D
- EXPERIMENT_NOTES: NCI tumour cell line growth inhibition, 48 h
Calls of active or inactive are those of the source. Rule as the data show it: active = GI50 up to about 1.1 µM and inactive = higher. Positions of bridges follow the written chain, without caps; N, C: chain ends. Residues, ends and D or L forms follow the SMILES beside them. Peptide text beside a SMILES is read from it. * marks the point of attachment. Cbz = O=C(OCc1ccccc1)*; CH2Cl = ClC*
Write down the outcome that applies. Available outcomes: yes (1) for active, no (0) for inactive

What outcome does the record of this test show for C[C@@H](NC(=O)OC1C=CC2(CC1)C(=O)N(C)c1ccccc12)c1cccc2ccccc12 (stereo partly drawn) ?
no (0)

Please share the test call associated with CC(C)CC(NC(=O)OCc1ccccc1)C(=O)NC(Cc1ccccc1)C(=O)CCl (stereo not drawn) (Cbz-Leu-Phe-CH2Cl; configuration not given here) .
no (0)

Tell me the assay call for C=CC(c1ccccc1)[C@@]1(OC(C)=O)C(=O)C(=O)OC1C1COC(C)(C)O1 (stereo partly drawn) please.
no (0)

For CCCCCCCCCCCCCCCCCCNC(=O)OCC(CNS(=O)(=O)CCC[n+]1cccc2ccccc21)COC (stereo not drawn) , which call appears in the assay record?
no (0)

Please let me know the test result on file for CCC(C)C1NC(=O)C(CC(C)C)NC(=O)C(C(C)C)NC(=O)C2CSSCC(NC1=O)C(=O)N2 (stereo not drawn) (cyclo(CCVLI); disulfide 1-2; configuration not given here) .
yes (1)

What is the recorded call for this molecule in the test? c1c[nH]c(C23C4C5C6C4C2C6C53)n1 (stereo not drawn)
no (0)

Short answer needed: outcome of this test for "C/C(=N\N=C(/S)N1CC2CCC(CC2)C1)c1cccc[n+]1[O-]" ?
no (0)

Test call for this molecule, please: CC(O)(/C=C/c1ccccc1)P(=O)(O)c1ccccc1 (stereo not drawn)
no (0)

Record lookup: outcome of this test for "CNC(=O)N1CCN(C(=O)NC)CCN(C(=O)NC)CC1" ?
no (0)

# outcome recorded in this test, key = COC(=O)C1SC[C@H]2C(=O)N(c3ccccc3)C(=O)N12 (stereo partly drawn)
no (0)

Please let me know the test result on file for "O=[N+]([O-])C(=C/c1ccccc1)/C(=C\c1ccccc1)[N+](=O)[O-]" .
no (0)

State the result this test recorded for O=C1CC(C(O)C(O)C(O)CO)CC(=O)N1 (stereo not drawn) .
no (0)

For O=C(ON=C1c2ccccc2C(Br)C(Br)c2ccccc21)c1ccccc1 (stereo not drawn) , which call appears in the assay record?
no (0)

Fill in: this test's call for "O=C1c2ccccc2C(=O)c2c1ccc1nc3c(nc21)-c1c2ccccc2cc2cccc-3c12" is ___
no (0)

Please indicate how the test categorized CCOc1ccc(NC(=O)C(=O)C(/C(=N/N)C(=O)OC)c2nc3ccc([N+](=O)[O-])cc3nc2O)cc1 (stereo not drawn) .
no (0)

// param item: "Cc1nc2c(nc1C)-c1[nH]c3c(c1C(=O)C2=O)CCCC3=O" ; yields the recorded call
yes (1)

For this molecule, state the assay outcome: "CCCc1n[nH]c(=O)n1N1C(=O)C=CC1=O"
no (0)

Short answer needed: outcome of this test for CC1CCc2c(c(CC3CC(=O)NC(=O)C3)nn2-c2ccccc2)C1 (stereo not drawn) ?
no (0)

GET /call?item= "CCc1nc2cc(/N=N/c3c(O)ccc4ccccc34)ccc2[nH]1" returns the recorded outcome of this test.
no (0)

Recorded test call requested for "O=C(O)c1ccc([N+](=O)[O-])c(P(=O)(O)O)c1"
no (0)

Per the records of this test, what outcome belongs to "Clc1ccc(-c2c3nc(c(-c4ccc(Cl)cc4)c4ccc([nH]4)c(-c4ccc(Cl)cc4)c4nc(c(-c5ccc(Cl)cc5)c5ccc2[nH]5)C=C4)C=C3)cc1" ?
no (0)

Could you check what this test reported for COC(=O)CNC(=O)CCC(C)[C@H]1CCC2C3C(C[C@H](OC(C)=O)[C@@]21C)[C@@]1(C)CCC2(C[C@H]1C[C@H]3OC(C)=O)OOC1(CC[C@]3(C)C4C[C@H](OC(C)=O)[C@@]5(C)C(CC[C@@H]5C(C)CCC(=O)NCC(=O)OC)C4[C@H](OC(C)=O)C[C@@H]3C1)OO2 (stereo partly drawn) ?
no (0)

What classification did "O=C(c1cccs1)N(C(=O)N1CCC(c2ccccc2)CC1)c1ccccc1" end up with in this test?
no (0)

Entry "Cc1ccc(C)c(COCCOCn2ccc(N)nc2=O)c1" : call = ?
no (0)

Please let me know the test result on file for "CC[C@@H]1CC[C@@H]2[C@H](CC[C@]3(C)[C@@H](OC(C)=O)CC[C@@H]23)[C@H]1C(=O)OC" .
no (0)

# lookup: test call for "O=S(=O)(O)c1ccc2c(/N=N/c3ccc(/N=N/c4ccccc4)cc3)c(O)c(S(=O)(=O)O)cc2c1"
no (0)

In this assay, the call recorded for "Cc1ccc(/C(O)=C/c2nc3ccccc3oc2=O)cc1" was what?
no (0)

Any idea what this test logged for COc1ccc2c(c1)CC1Cc3ccccc3CCN1C2 (stereo not drawn) ?
no (0)

Record request — test call for "Cc1cccc2c1C/C(=C\c1cccc(C)c1C(=O)O)C2=O"
no (0)

Per the assay record, what outcome was assigned to "c1ccc(SCCc2ccncc2)cc1" ?
no (0)

Dear colleague, could you share the recorded outcome for "CC(/C=N/N(C)C1=NCCCN1)=N/N(C)C1=NCCCN1" when you have a moment?
no (0)

Can you look up the reported call for "Nc1ncnc2c1ncn2[C@@H]1O[C@H](COP(=O)(O)OP(=O)(O)OC[C@H]2O[C@@H](OCCCO)[C@H](O)[C@@H]2O)[C@@H](O)[C@H]1O" for me?
no (0)

Check the results log: what was the call for COc1cc(C2CC(C)(N3CCCC3)Oc3cc4c(cc32)OCO4)cc(OC)c1OC (stereo not drawn) ?
no (0)
